Molecular target: human ErbB2, full length, on cells (human, UniProt P04626 23-1255)
Assay: cell-based or functional assay
N2 EC50 (ng/ml), inhibition of BT474 cell proliferation values for the binders below.
Respond numerically; units are ng/mL and should not be typed.

Solved cases (3 shown):
Quick check: N2 EC50 (ng/ml), inhibition of BT474 cell proliferation of monoclonal antibody 1.14.1 (antibody, V domains shown, Fully human IgG (gamma/kappa) from a XenoMouse XM3B-3 hybridoma; constant regions not tied to it) VH: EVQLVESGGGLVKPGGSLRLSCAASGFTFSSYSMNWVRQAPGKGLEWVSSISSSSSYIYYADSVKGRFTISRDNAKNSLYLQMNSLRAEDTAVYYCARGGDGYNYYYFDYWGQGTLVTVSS VL: DIVMTQSPDSLAVSLGERATITCKSSQSVFFRSNNKNCLTWYQQRPGQPPNLLIYWASTRESGVPDRFSGSGSGTDFTLTINNLQAEDVAVYYCQQYFGSPFTFGPGTKVDIK ?
63

Quick check: N2 EC50 (ng/ml), inhibition of BT474 cell proliferation of monoclonal antibody 1.96 (antibody, V domains shown, Fully human IgG (gamma/kappa) from a XenoMouse XM3B-3 hybridoma; constant regions not tied to it) VH: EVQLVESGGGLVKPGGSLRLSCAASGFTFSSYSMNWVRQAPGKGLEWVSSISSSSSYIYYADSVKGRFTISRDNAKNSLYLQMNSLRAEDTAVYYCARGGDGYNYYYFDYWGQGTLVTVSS VL: DIVMTQSPDSLAVSLGERATITCKSSQSVFFRSNNKNCLAWYQQRPGQPPNLLFYWASTRESGVPDRFSGSGSGTDFTLTISSLQAEDVAVYYCQQYFGSPFTLGPGTKVDIK ?
66.3

Quick check: N2 EC50 (ng/ml), inhibition of BT474 cell proliferation of monoclonal antibody 1.100.1 (antibody, V domains shown, Fully human IgG (gamma/kappa) from a XenoMouse XM3B-3 hybridoma; constant regions not tied to it; also called 1.100.2; 1.100.3) VH: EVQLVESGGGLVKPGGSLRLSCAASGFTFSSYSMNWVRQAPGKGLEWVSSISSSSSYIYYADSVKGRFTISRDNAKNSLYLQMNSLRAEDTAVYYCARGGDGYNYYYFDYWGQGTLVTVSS VL: DIVMTQSPDSLAVSLGERATITCKSSQSVFFRSNNKNCLAWYQQRPGQPPNLLIYWASTRESGVPDRFSGSGCGTDFTLTISSLQAEDVAVYYCQQYFGSPFTFGPGTKVDIK ?
91.1

Further cases:
Quick check: N2 EC50 (ng/ml), inhibition of BT474 cell proliferation of monoclonal antibody 1.18.1 (antibody, V domains shown, Fully human IgG (gamma/kappa) from a XenoMouse XM3B-3 hybridoma; constant regions not tied to it) VH: EVQLVESGGGLVKPGGSLRLSCAASGFTFSSYSMNWVRQAPGKGLEWVSSISSSSSYIYYADSVKGRFTISRDNAKNSLYLQMNSLSAEDTAVYSCARGGDGYNYYYFDYWGQGTLVTVSS VL: DIVMTQSPGSLVVSLGERATITCKSSQSVFFRSNNKNCLAWYQQRPGQSPNLLIYWASTRESGVPDRFSGSGSGTDFTLTISSLQAEDVAVYYCQQYFGSPFTFGPGTKVDIK ?
28.2

Quick check: N2 EC50 (ng/ml), inhibition of BT474 cell proliferation of monoclonal antibody 1.20 (antibody, V domains shown, Fully human IgG (gamma/kappa) from a XenoMouse XM3B-3 hybridoma; constant regions not tied to it; also called 1.20.1; 1.19) VH: EVQLVESGGGLVKPGGSLRLSCAASGFTFSSYTMNWVRQAPGKGLEWVSSISSSSSYIYYADSVKGRFTISRDNAKNSLYLQMNSLSAEDTAVYSCARGGDGYNYYYFDYWGQGTLVTVSS VL: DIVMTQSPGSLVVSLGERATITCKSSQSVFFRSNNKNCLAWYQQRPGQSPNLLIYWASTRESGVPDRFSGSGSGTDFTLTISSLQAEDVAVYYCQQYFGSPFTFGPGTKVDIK ?
12.8

Quick check: N2 EC50 (ng/ml), inhibition of BT474 cell proliferation of monoclonal antibody 1.39 (antibody, V domains shown, Fully human IgG (gamma/kappa) from a XenoMouse XM3B-3 hybridoma; constant regions not tied to it; also called 1.39.1; 1.39.2) VH: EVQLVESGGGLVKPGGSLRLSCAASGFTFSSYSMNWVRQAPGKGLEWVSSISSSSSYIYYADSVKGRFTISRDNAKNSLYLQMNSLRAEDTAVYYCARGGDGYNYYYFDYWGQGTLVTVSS VL: DIVMTQSPDSLAVSLGERATITCKSSQSVFFRSNNKNCLAWYQQRPGQPPNLLIYWASSRESGVPDRFSGSGSGTDFALTISSLQTEDVAVYYCQQYFGSPFTFGPGTKVDIK ?
42.3
